Experiment: In vitro cytotoxicity analysis (CellTiter-Glo), 293T
Conditions: human, 293T cells, Cytotoxicity EC50, 293T, 72 h, CellTiter-Glo
# binning rule on EC50 at 72 h: range 1: < 0.7 µM; range 2: ≥ 0.7 µM and < 2 µM; range 3: ≥ 2 µM

[
  {
    "compound": "Cl.O=C(NO)c1cnc(N2CCC3(CCN(Cc4ccc5c(c4)CCO5)C3)C2)nc1 (centres unmarked) [JX21109]",
    "group": "range 3"
  },
  {
    "compound": "COc1ccc2c(c1)c(CN1CCC3(CCN(c4ncc(C(=O)NO)cn4)C3)C1)cn2C.Cl (centres unmarked) [JX21104]",
    "group": "range 1"
  },
  {
    "compound": "Cl.Cn1cc(CN2CCC3(CCN(c4ncc(C(=O)NO)cn4)C3)C2)c2cc(C#N)ccc21 (centres unmarked) [JX21108]",
    "group": "range 2"
  },
  {
    "compound": "Cl.Cn1cc(CN2CCC3(CCN(c4ncc(C(=O)NO)cn4)C3)C2)c2cccnc21 (centres unmarked) [JX21130]",
    "group": "range 3"
  },
  {
    "compound": "Cl.Cn1nc(CN2CCC3(CCN(c4ncc(C(=O)NO)cn4)C3)C2)c2ccccc21 (centres unmarked) [JX21124]",
    "group": "range 2"
  },
  {
    "compound": "Cl.Cn1cc(CN2CC3(CCN(c4ncc(C(=O)NO)cn4)CC3)C2)c2ccccc21 [JX21014]",
    "group": "range 2"
  },
  {
    "compound": "Cn1cc(CN2CCC3(CCN(c4ncc(C(=O)NO)cn4)C3)C2)c2ccccc21 (centres unmarked) [JX21011]",
    "group": "range 1"
  },
  {
    "compound": "Cl.O=C(NO)c1cnc(N2CCC3(CCN(Cc4cc5ccccc5s4)C3)C2)nc1 (centres unmarked) [JX21118]",
    "group": "range 2"
  },
  {
    "compound": "Cl.O=C(NO)c1cnc(N2CCC3(CCN(Cc4ccc5ccccc5c4)C3)C2)nc1 (centres unmarked) [JX21101]",
    "group": "range 2"
  },
  {
    "compound": "COc1ccc2c(CN3CCC4(CCN(c5ncc(C(=O)NO)cn5)C4)C3)cn(C)c2c1.Cl (centres unmarked) [JX21142]",
    "group": "range 2"
  },
  {
    "compound": "COc1ccc(-c2nc(N3CCOCC3)c3sc(CN(C)c4ncc(C(=O)NO)cn4)cc3n2)cn1 [Fimepinostat, reference compound]",
    "group": "range 1"
  },
  {
    "compound": "CN(c1ncc(C(=O)NO)cn1)C1CCN(Cc2cn(C)c3ccccc23)CC1.Cl [JX21006]",
    "group": "range 1"
  },
  {
    "compound": "Cl.O=C(NO)c1cnc(N2CCC3(CCN(Cc4csc5ccccc45)C3)C2)nc1 (centres unmarked) [JX21115]",
    "group": "range 1"
  },
  {
    "compound": "Cl.Cn1cc(CN2CCC3(CCCN(c4ncc(C(=O)NO)cn4)C3)CC2)c2ccccc21 [JX21017]",
    "group": "range 3"
  },
  {
    "compound": "Cn1cc(CNCC2CCN(c3ncc(C(=O)NO)cn3)CC2)c2ccccc21 [Quisinostat, reference compound]",
    "group": "range 1"
  },
  {
    "compound": "Cl.O=C(NO)c1cnc(N2CCC3(CCN(Cc4cc5ccccc5o4)C3)C2)nc1 (centres unmarked) [JX21117]",
    "group": "range 2"
  }
]
